Data provenance is paper PMC9482650.

# EXPERIMENTAL_SYSTEM: HTRA1, Q92743
# Sequence (Q92743 360-477): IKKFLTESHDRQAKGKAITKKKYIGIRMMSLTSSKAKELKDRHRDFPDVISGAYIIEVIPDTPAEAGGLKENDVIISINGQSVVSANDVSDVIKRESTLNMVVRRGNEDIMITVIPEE
# EXPERIMENTAL_PROTOCOL: holdup assay
# Set-up: key: below the threshold = too weak to quantify, mostly under pKd 3.1 to 4
# PROTOCOL_CONDITIONS: plain residues with an end cap or a label only (N-terminal biotin on a linker: ado-ado)

# BINDER, pKd
measured = [
    ("QRPYRRGSEI [KCNJ18, B7U540]", 3.85),
    ("RSSGGDDFWF [KCNV1, Q6PIU1]", 4.61),
    ("LPAVCYDIDI [PTTG2, Q9NZH5]", 3.9),
    ("NIAESLESLV [PTPRZ1, P23471]", 4.41),
    ("ILRKSTTTTV [PRR16, Q569H4]", 4.06),
    ("KSRVAFFEEL [NF2, P35240;P35240-1]", 4.51),
    ("QLSFNTDTLC [ABCA2, Q9BZC7]", 4.11),
    ("GTGYDRKDYV [CLDN3, O15551]", 4.14),
    ("APIAGFSSFV [SDK2, Q58EX2]", 4.51),
    ("AEASVACSLC [PTGIR, P43119]", 3.93),
    ("SRSVVESDEL [MYPN, Q86TC9]", 3.69),
    ("IDESKKEWLI [CNTNAP2, Q9UHC6]", 5.31),
    ("TGLWKHETTV [ADGRA3, Q8IWK6]", 4.32),
    ("VLYPREGTEV [FOXI1, Q12951]", 4.64),
    ("AAVENKVTDL [PLXNB1, O43157]", 4.12),
    ("DFLSTFHIRI [CIB2, O75838]", 4.15),
    ("QSYPSKHDYV [CLDN18, P56856]", 4.32),
    ("LESTTVGTSV [KARS1, Q15046]", 3.95),
    ("REEPDHSTEV [CCRL2, O00421]", 4.44),
    ("QKAPTKEFYA [SDC2, P34741]", 4.47),
    ("RDPPAEWTRV [PTPN18, Q99952]", 4.4),
]
